target: human vasopressin V1a receptor (Homo sapiens); experiment: Vasopressin V1a receptor binding assay; conditions: selectivity for V1b over V1a, quotient of Ki values
Sequence (P37288 whole entry): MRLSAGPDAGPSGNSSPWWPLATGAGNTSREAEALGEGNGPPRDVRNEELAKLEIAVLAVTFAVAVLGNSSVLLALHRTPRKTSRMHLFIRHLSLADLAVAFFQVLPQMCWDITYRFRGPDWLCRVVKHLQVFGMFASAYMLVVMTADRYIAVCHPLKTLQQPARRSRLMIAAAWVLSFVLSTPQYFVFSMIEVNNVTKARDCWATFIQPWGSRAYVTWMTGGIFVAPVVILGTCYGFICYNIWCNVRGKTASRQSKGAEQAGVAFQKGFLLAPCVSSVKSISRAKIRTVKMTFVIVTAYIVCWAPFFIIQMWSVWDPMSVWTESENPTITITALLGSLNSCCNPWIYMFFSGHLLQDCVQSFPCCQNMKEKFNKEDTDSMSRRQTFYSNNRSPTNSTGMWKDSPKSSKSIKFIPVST

- MOLECULE: "CCOc1ncccc1C1(NC(=O)N2CCN(C3CCN(C)CC3)CC2)C(=O)N(S(=O)(=O)c2ccccc2)c2ccc(C#N)cc21 (racemic)"
  Ki(h-V1a)/Ki(h-V1b): "++ (>50-100)"
- MOLECULE: "CCOc1ncccc1C1(NC(=O)N2CCC(C3CCN(C)CC3)CC2)C(=O)N(S(=O)(=O)c2ccc(OC)cc2OC)c2ccc(C#N)cc21.O=C(O)C(F)(F)F (single isomer, unassigned) [Example 61B]"
  Ki(h-V1a)/Ki(h-V1b): "+++ (>100)"
- MOLECULE: "CCOc1ncccc1C1(NC(=O)N2CCC(N3CCN(CC)CC3)CC2)C(=O)N(S(=O)(=O)c2ccc(OC)cc2OC)c2ccc(C#N)cc21 (racemic) [Example 37]"
  Ki(h-V1a)/Ki(h-V1b): "+++ (>100)"
- MOLECULE: "CCOc1ncccc1C1(NC(=O)N2CCN(C3CCN(CC)CC3)CC2)C(=O)N(S(=O)(=O)c2ccc(OC)cc2OC)c2ccc(C#N)cc21.O=C(O)C(F)(F)F (single isomer, unassigned)"
  Ki(h-V1a)/Ki(h-V1b): "+++ (>100)"
- MOLECULE: "CCOc1ncccc1C1(NC(=O)N2CCC(N3CCN(CC)CC3)CC2)C(=O)N(S(=O)(=O)c2ccccc2)c2ccc(C#N)cc21 (racemic) [Example 40]"
  Ki(h-V1a)/Ki(h-V1b): "++ (>50-100)"
- MOLECULE: "CCOc1ncccc1C1(NC(=O)N2CCC(N3CCN(CC)CC3)CC2)C(=O)N(S(=O)(=O)c2ccccc2)c2ccc(C#N)cc21 (single isomer, unassigned) [Example 40B]"
  Ki(h-V1a)/Ki(h-V1b): "+ (15-50)"
- MOLECULE: "CCOc1ncccc1C1(NC(=O)N2CCC(C3CCN(CC)CC3)CC2)C(=O)N(S(=O)(=O)c2ccc(OC)cc2OC)c2ccc(C#N)cc21.O=C(O)C(F)(F)F (racemic) [Example 67]"
  Ki(h-V1a)/Ki(h-V1b): "+++ (>100)"
- MOLECULE: "CCOc1ccccc1S(=O)(=O)N1C(=O)C(NC(=O)N2CCN(C3CCN(C)CC3)CC2)(c2cccnc2OCC)c2cc(C#N)ccc21.O=C(O)C(F)(F)F (racemic)"
  Ki(h-V1a)/Ki(h-V1b): "+++ (>100)"
- MOLECULE: "CCOc1ncccc1C1(NC(=O)N2CCC(C3CCNCC3)CC2)C(=O)N(S(=O)(=O)c2ccc(OC)cc2OC)c2ccc(C#N)cc21.O=C(O)C(F)(F)F.O=C(O)C(F)(F)F (racemic)"
  Ki(h-V1a)/Ki(h-V1b): "+++ (>100)"
- MOLECULE: "CCOc1ncccc1C1(NC(=O)N2CCC(N3CCN(C)CC3)CC2)C(=O)N(S(=O)(=O)c2ccc(OC)cc2OC)c2ccc(C#N)cc21 (single isomer, unassigned) [Example 31B]"
  Ki(h-V1a)/Ki(h-V1b): "+++ (>100)"
- MOLECULE: "CCOc1ncccc1C1(NC(=O)N2CCN(C3CCN(C)CC3)CC2)C(=O)N(S(=O)(=O)c2ccccc2OC)c2ccc(C#N)cc21 (racemic)"
  Ki(h-V1a)/Ki(h-V1b): "+++ (>100)"
- MOLECULE: "CCOc1ncccc1C1(NC(=O)N2CCC(C3CCN(C)CC3)CC2)C(=O)N(S(=O)(=O)c2ccc(OC)cc2OC)c2ccc(C#N)cc21 (racemic)"
  Ki(h-V1a)/Ki(h-V1b): "+++ (>100)"
- MOLECULE: "CCOc1ncccc1C1(NC(=O)N2CCC(N3CCN(C)CC3)CC2)C(=O)N(S(=O)(=O)c2ccc(OC)cc2OC)c2ccc(C#N)cc21 (racemic) [Example 31]"
  Ki(h-V1a)/Ki(h-V1b): "+++ (>100)"
- MOLECULE: "CCOc1ncccc1C1(NC(=O)N2CCN(C3CCN(C)CC3)CC2)C(=O)N(S(=O)(=O)c2ccc(OC)cc2OC)c2ccc(C#N)cc21 (racemic)"
  Ki(h-V1a)/Ki(h-V1b): "+++ (>100)"
- MOLECULE: "CCOc1ncccc1C1(NC(=O)N2CCC(N3CCNCC3)CC2)C(=O)N(S(=O)(=O)c2ccc(OC)cc2OC)c2ccc(C#N)cc21 (racemic)"
  Ki(h-V1a)/Ki(h-V1b): "+++ (>100)"
- MOLECULE: "CCCN1CCN(C2CCN(C(=O)NC3(c4cccnc4OCC)C(=O)N(S(=O)(=O)c4ccc(OC)cc4OC)c4ccc(C#N)cc43)CC2)CC1 (racemic)"
  Ki(h-V1a)/Ki(h-V1b): "+++ (>100)"
- MOLECULE: "CCOc1ncccc1C1(NC(=O)N2CCC(N3CCN(CC)CC3)CC2)C(=O)N(S(=O)(=O)c2ccc(OC)cc2OC)c2ccc(C#N)cc21 (single isomer, unassigned) [Example 37B]"
  Ki(h-V1a)/Ki(h-V1b): "+++ (>100)"
- MOLECULE: "CCOc1ncccc1C1(NC(=O)N2CCC(C3CCN(CC)CC3)CC2)C(=O)N(S(=O)(=O)c2ccc(OC)cc2OC)c2ccc(C#N)cc21.O=C(O)C(F)(F)F (single isomer, unassigned) [Example 67B]"
  Ki(h-V1a)/Ki(h-V1b): "+++ (>100)"
- MOLECULE: "CCOc1ncccc1[C@]1(NC(=O)N2CCN(C3CCN(C)CC3)CC2)C(=O)N(S(=O)(=O)c2ccc(OC)cc2OC)c2ccc(C#N)cc21"
  Ki(h-V1a)/Ki(h-V1b): "+++ (>100)"
- MOLECULE: "CCOc1ncccc1C1(NC(=O)N2CCC(N3CCN(C)CC3)CC2)C(=O)N(S(=O)(=O)c2ccc(OC)cc2)c2ccc(C#N)cc21.O=C(O)C(F)(F)F (racemic)"
  Ki(h-V1a)/Ki(h-V1b): "+ (15-50)"
- MOLECULE: "CCOc1ncccc1C1(NC(=O)N2CCC(N3CCN(C)CC3)CC2)C(=O)N(S(=O)(=O)c2ccccc2OC)c2ccc(C#N)cc21 (racemic)"
  Ki(h-V1a)/Ki(h-V1b): "+ (15-50)"
- MOLECULE: "CCOc1ncccc1C1(NC(=O)N2CCN(C3CCNCC3)CC2)C(=O)N(S(=O)(=O)c2ccc(OC)cc2OC)c2ccc(C#N)cc21.O=C(O)C(F)(F)F.O=C(O)C(F)(F)F (racemic)"
  Ki(h-V1a)/Ki(h-V1b): "+++ (>100)"
